% Mortality at 48 Hrs. by entry:
- Tested on: Thrips
- recordedConditions: thrips on cotton plants, greenhouse; dose 1 ml/gm/lit. spray; 48 hrs after application
Answer with a number only, understood to be in %.

compound: CCCCCCCCCCCCCCCC(=O)O [Palmitic acid]
outputUnit: %
% Mortality at 48 Hrs.: 40.00

Enquiry: Suppose we examine the compound Cc1ccc(C(C)C)cc1O [Carvacrol] ; what % Mortality at 48 Hrs. value has been reported?
Return: 32.50

Enquiry: Look up % Mortality at 48 Hrs.: C=C1C2CCC(C2)C1(C)C (stereo not shown) [Camphene, camphene]
Return: 50.00

Enquiry: I would be grateful if you could share the reported % Mortality at 48 Hrs. for CC12CCC(CC1=O)C2(C)C (stereo not shown) [Camphor] .
Return: 42.50

Enquiry: // returns reported % Mortality at 48 Hrs. for input CC1=CC(=O)C(C(C)C)=CC1=O [Thymoquinone]
Return: 20.00

Enquiry: Would you kindly share the measured % Mortality at 48 Hrs. for CC12CCC(CC1)C(C)(C)O2 [1,8 cineole] ?
Return: 67.50

Enquiry: Please give the measured % Mortality at 48 Hrs. for this compound: O=c1oc2c(O)c(O)cc3c(=O)oc4c(O)c(O)cc1c4c23 [Ellagic acid]
Return: 32.50

====

- Tested on: chili seedlings
- assay: Response of chili plants, greenhouse growth (Ex. 31)
- Type: in vivo
- recordedConditions: chili seedlings; dose 1 ml/gm/lit; 10th day
Entries and their Root Lenght (cm) 10th Day
Just the number in cm, nothing appended.

In the examples that follow, each entry is paired with its recorded Root Lenght (cm) 10th Day.
compound: O=c1oc2c(O)c(O)cc3c(=O)oc4c(O)c(O)cc1c4c23 [Ellagic acid]
Root Lenght (cm) 10th Day: 3.92

compound: CC(C)=CCCC(C)=CC=O [Citral]
Root Lenght (cm) 10th Day: 3.13

compound: C=CCc1ccc(O)c(OC)c1 [Eugenol]
Root Lenght (cm) 10th Day: 4.16

Okay, next one:
Enquiry: Query for chili seedlings: what Root Lenght (cm) 10th Day does the record show for CC1=CC(=O)C(C(C)C)=CC1=O [Thymoquinone] ?
Return: 4.16

====

- System: Spodoptera litura
- assay: whole plant or invertebrate
- recordedConditions: 72 h, read-out: % Mortality at 72 Hrs.
testReadout: mortality at 1 mL or g/L (%)
Dear colleague, please return just the value in %, with no unit written.

Example entries begin here.
molecule: O=C(/C=C/C=C/c1ccc2c(c1)OCO2)N1CCCCC1
mortality at 1 mL or g/L / %: 72.5

molecule: CC(C)=CCCC(C)=CC=O
mortality at 1 mL or g/L / %: 55

molecule: CC(C)c1ccc(C=O)cc1
mortality at 1 mL or g/L / %: 52.5

molecule: CC1CCC(C(C)C)C(O)C1 (stereo not shown)
mortality at 1 mL or g/L / %: 27.5

molecule: C/C=C\c1cc(OC)c(OC)cc1OC
mortality at 1 mL or g/L / %: 60

Here is the next item to consider.
Enquiry: Entry COc1cc(CNC(=O)CCCC/C=C/C(C)C)ccc1O has what mortality at 1 mL or g/L?
Return: 42.5

====

- Test system: Mealy Bug
- recordedConditions: Mealy Bug on cotton leaves; dose 1 ml/gm/lit.; 48 Hrs.; corrected for water control
testReadout: % Corrected Mortality at 48 Hrs. (%)
// note: answer is a bare numeric in %

compound: CC1=CCC2CC1C2(C)C (centres unmarked)
targetEntity: Mealy Bug
assayValue: 50.00
--
compound: C=CCc1ccc(OC)cc1
targetEntity: Mealy Bug
assayValue: 60.53
--
compound: O=C(/C=C/C=C/c1ccc2c(c1)OCO2)N1CCCCC1
targetEntity: Mealy Bug
assayValue: 50.00
--
compound: CC12CCC(CC1=O)C2(C)C (centres unmarked)
targetEntity: Mealy Bug
assayValue: 50.00

Enquiry: # get_value(readout= % Corrected Mortality at 48 Hrs., system= Mealy Bug) for CC1=CC(=O)C(C(C)C)=CC1=O
Return: 50.00

====

- System: Aphid
- recordedConditions: Aphids on cotton plants, green house; dose 1 ml/gm/lit.; 10 insects/plant, 10 plants/treatment; 48 hrs
Overview of reported Total No. of dead insect at 48 Hrs. across a group of compounds:

Recorded results for 3 compounds are shown here.
compound: CC12CCC(CC1=O)C2(C)C (centres unmarked)
Total No. of dead insect at 48 Hrs.: 60.00
//
compound: Cc1ccc(C(C)C)c(O)c1
Total No. of dead insect at 48 Hrs.: 62.50
//
compound: Cc1ccc(C(C)C)cc1O
Total No. of dead insect at 48 Hrs.: 72.50

Enquiry: Request - read-out Total No. of dead insect at 48 Hrs. | tested on Aphid | compound CC12CCC(CC1)C(C)(C)O2
Return: 62.50

Enquiry: Checklist item: Total No. of dead insect at 48 Hrs. tested on Aphid, entry CCCCCCCCCCCCCCCC(=O)O , value?
Return: 70.00

Enquiry: What measured Total No. of dead insect at 48 Hrs. is associated with CC1CCC(C(C)C)C(O)C1 (centres unmarked) on Aphid?
Return: 75.00

Enquiry: Hello, I am looking for reported Total No. of dead insect at 48 Hrs. with Aphid for O=c1oc2c(O)c(O)cc3c(=O)oc4c(O)c(O)cc1c4c23 . Could you help?
Return: 75.00

Enquiry: Request: Total No. of dead insect at 48 Hrs., test system Aphid, entry O=C(/C=C/C=C/c1ccc2c(c1)OCO2)N1CCCCC1
Return: 70.00

====

- Tested on: Mite
- recordedConditions: Dose 1 ml/gm/lit.; 48 hrs
testReadout: % Mortality at 48 Hrs. (%)
Output spec: scalar in %, unitless text.

Examples with their reported % Mortality at 48 Hrs. follow.
cpdSmiles: C/C=C\c1cc(OC)c(OC)cc1OC
testReadout: % Mortality at 48 Hrs.
assayValue: 25.00

cpdSmiles: C=C(C)[C@H]1CC=C(C)CC1
testReadout: % Mortality at 48 Hrs.
assayValue: 50.00

cpdSmiles: Cc1ccc(C(C)C)cc1O
testReadout: % Mortality at 48 Hrs.
assayValue: 42.50

Shift focus to the following entry.
Enquiry: Please report the recorded % Mortality at 48 Hrs. for O=C(/C=C/C=C/c1ccc2c(c1)OCO2)N1CCCCC1 .
Return: 62.50

====

- Tested on: Spodoptera litura
- assay: whole plant or invertebrate
- recordedConditions: 72 h, read-out: % Mortality at 72 Hrs.
testReadout: mortality at 1 mL or g/L (%)
Return type: number; implicit unit %.

Enquiry: I have this compound here, CC1=CC(=O)C(C(C)C)=CC1=O , and I need its recorded mortality at 1 mL or g/L.
Return: 42.5

Enquiry: Recorded mortality at 1 mL or g/L of Cc1ccc(C(C)C)cc1O , please.
Return: 45

Enquiry: I'd like to know its mortality at 1 mL or g/L. The compound in question is CC1=CCC2CC1C2(C)C (stereo not shown)
Return: 50

Enquiry: Returns the measured mortality at 1 mL or g/L for the input compound. Input: C=CCc1ccc(OC)cc1
Return: 65
